test_system: UniProtKB Q96RJ0
Sequence (Q96RJ0 whole entry): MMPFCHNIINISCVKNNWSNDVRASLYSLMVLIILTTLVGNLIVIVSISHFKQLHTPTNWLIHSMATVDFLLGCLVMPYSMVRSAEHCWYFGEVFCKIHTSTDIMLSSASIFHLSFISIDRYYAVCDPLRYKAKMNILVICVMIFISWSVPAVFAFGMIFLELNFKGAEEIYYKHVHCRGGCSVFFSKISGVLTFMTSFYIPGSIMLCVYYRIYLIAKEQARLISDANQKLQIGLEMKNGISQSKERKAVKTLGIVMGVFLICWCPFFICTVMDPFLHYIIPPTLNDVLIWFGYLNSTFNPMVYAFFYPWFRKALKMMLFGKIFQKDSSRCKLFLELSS
method_summary: Agonist activity at human TAAR1 extracted from CHO-K1 cell membrane coexpressing AGTRL1/Gi by measuring maximum efficacy at 0 to 100 uM by cAMP assay relative to control
Type: functional, cell membranes
experimental_context: dose 0-100 µM
Simple rule here: Emax less than 30% is Fulfilled, otherwise Not fulfilled.

Dear reviewer, please state whether CCCCCN1CCc2ccsc2C1CN (stereo in doubt; 20b) has Emax strictly beneath 30%.
Fulfilled

---

method_summary: Apparent permeability across apical to basolateral side in human Caco-2 cells at 2 uM by LC-MS/MS analysis
Type: ADME, cell-based
observable: Papp A→B at 2 µM (×10⁻⁶ cm/s)
Give just the number in ×10⁻⁶ cm/s; leave the unit off.

Recorded Papp A→B at 2 µM for COc1ccsc1C1CNCCO1 (stereo in doubt; 25a) , please?
46
